target.entity: TRPML3 (Homo sapiens)
Construct: expressed in transfected cells
Sequence (Q8TDD5 whole entry): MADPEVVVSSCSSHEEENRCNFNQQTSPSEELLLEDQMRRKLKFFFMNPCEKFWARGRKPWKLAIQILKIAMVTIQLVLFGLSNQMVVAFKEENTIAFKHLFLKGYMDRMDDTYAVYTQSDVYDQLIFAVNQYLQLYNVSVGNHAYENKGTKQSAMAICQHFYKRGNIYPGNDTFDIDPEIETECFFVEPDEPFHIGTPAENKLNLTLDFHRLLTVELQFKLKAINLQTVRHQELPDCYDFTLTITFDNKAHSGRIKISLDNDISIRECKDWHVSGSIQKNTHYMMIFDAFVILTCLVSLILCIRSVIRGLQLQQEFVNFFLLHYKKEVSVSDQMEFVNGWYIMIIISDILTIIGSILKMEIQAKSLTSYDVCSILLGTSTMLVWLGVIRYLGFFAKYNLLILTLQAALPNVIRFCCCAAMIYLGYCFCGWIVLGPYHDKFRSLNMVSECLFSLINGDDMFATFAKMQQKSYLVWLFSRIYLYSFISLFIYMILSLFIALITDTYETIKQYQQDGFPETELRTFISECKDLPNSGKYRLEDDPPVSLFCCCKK
test: Fluorescent TRPML3 assay (as for TRPML1)
Type: cell-based
reported.conditions: Table 3, compounds 101-177
measurement.label: EC50

If you can, please state the reported EC50 value of C[C@@H]1CN(c2ncnc3c2c(-c2ccccc2)cn3-c2cc(C#N)ccn2)CCN1C(=O)C1CC1 . 100 to 500 nM

For CC(C)CC(=O)N1CCN(c2ncnc3c2c(C2CC2)cn3-c2cc(C#N)ccn2)[C@@H](C)C1 then? > 2000 nM

====

target.entity: TRPML2 (Homo sapiens)
Construct: expressed in transfected cells
test: Fluorescent TRPML2 assay (as for TRPML1)
Type: cell-based
reported.conditions: Table 3, compounds 101-177
pEC50: −log10 of the molar value.
measurement.label: pEC50

{"compound": "C[C@@H]1CN(c2ncnc3c2c(-c2ccccc2F)cn3-c2cc(C#N)ccn2)CCN1C(=O)C(C)(C)C [Compound 109]", "target.entity": "TRPML2 (Homo sapiens)", "result": "> 7.00"}
{"compound": "Cc1cc(C#N)cc(-n2cc(-c3ccccc3F)c3c(N4CCN(C(=O)C(C)C)C[C@@H]4C)ncnc32)n1 [Compound 143]", "target.entity": "TRPML2 (Homo sapiens)", "result": "6.30 to 7.00"}
{"compound": "CC(C)CC(=O)N1C[C@H](C)N(c2ncnc3c2c(C2CC2)cn3-c2cc(C#N)ccn2)C[C@H]1C [Compound 154]", "target.entity": "TRPML2 (Homo sapiens)", "result": "< 5.70"}
{"compound": "C[C@H]1CN(C(=O)C(C)(C)C)CCN1c1ncnc2c1c(-c1ccccc1)cn2-c1cc(C#N)ccn1 [Compound 120]", "target.entity": "TRPML2 (Homo sapiens)", "result": "6.30 to 7.00"}
{"compound": "C[C@@H]1CN(c2cn(-c3cc(C#N)ccn3)c3ncnc(N4CCN(C(=O)CC(C)(C)C)C[C@@H]4C)c23)CCO1 [Compound 165]", "target.entity": "TRPML2 (Homo sapiens)", "result": "6.30 to 7.00"}
{"compound": "C[C@H]1CN(C(=O)CC(C)(C)C)CCN1c1ncnc2c1c(-c1ccccc1F)cn2-c1cc(C#N)ccn1 [Compound 133]", "target.entity": "TRPML2 (Homo sapiens)", "result": "6.30 to 7.00"}

If you can, please state the reported pEC50 value of C[C@@H]1CN(c2ncnc3c2c(C2CC2)cn3-c2cc(C#N)ccn2)CCN1C(=O)C(C)(C)C [Compound 122] . 6.30 to 7.00

For CC(C)C(=O)N1CCN(c2ncnc3c2c(-c2ccccc2F)cn3-c2cc(C#N)ccn2)C2(CC2)C1 [Compound 155] then? 6.30 to 7.00

For C[C@H]1CN(C(=O)CC(C)(C)C(F)(F)F)CCN1c1ncnc2c1c(-c1ccccc1F)cn2-c1cc(C#N)ccn1 [Compound 140] then? > 7.00

For CC(C)C(=O)N1CCN(c2ncnc3c2c(N2CCCC2)cn3-c2cc(C#N)ccn2)[C@@H](C)C1 [Compound 144] then? 6.30 to 7.00

====

target.entity: human TRPML1 (Homo sapiens, UniProt Q9GZU1)
Sequence (Q9GZU1 whole entry L15A/L16A/L577A/L578A, form open): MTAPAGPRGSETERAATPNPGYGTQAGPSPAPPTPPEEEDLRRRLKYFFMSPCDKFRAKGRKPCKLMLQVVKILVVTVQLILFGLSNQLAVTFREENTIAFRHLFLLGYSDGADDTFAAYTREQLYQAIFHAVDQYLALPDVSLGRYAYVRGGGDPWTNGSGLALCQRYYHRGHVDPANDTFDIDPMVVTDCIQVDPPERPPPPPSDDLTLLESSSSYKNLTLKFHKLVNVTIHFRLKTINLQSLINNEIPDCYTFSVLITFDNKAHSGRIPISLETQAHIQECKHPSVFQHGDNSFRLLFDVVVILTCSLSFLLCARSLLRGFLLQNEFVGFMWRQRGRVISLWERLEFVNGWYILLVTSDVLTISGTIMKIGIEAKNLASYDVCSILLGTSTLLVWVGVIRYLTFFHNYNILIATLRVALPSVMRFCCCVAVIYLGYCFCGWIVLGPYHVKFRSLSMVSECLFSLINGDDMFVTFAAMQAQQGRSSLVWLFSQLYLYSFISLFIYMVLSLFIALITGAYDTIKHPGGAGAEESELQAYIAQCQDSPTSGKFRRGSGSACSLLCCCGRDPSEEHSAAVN
test: Fluorescent TRPML1 assay (Fluo4-AM calcium fluorescence, HEK-293 Trex cells)
Format: cell-based
reported.conditions: Table 3, compounds 101-177
Below, each entry is listed with its recorded EC50.

If you can, please state the reported EC50 value of CCCN(CC)c1cn(-c2cc(C#N)ccn2)c2ncnc(N3CCN(C(=O)CC(C)(C)C)C[C@@H]3C)c12 . < 100 nM

For CC(C)C(=O)N1CC2(CCN(c3ncnc4c3c(-c3ccccc3F)cn4-c3cc(C#N)ccn3)C2)C1 then? > 2000 nM

For C[C@H]1CN(C(=O)C(C)(C)F)CCN1c1ncnc2c1c(C1CC1)cn2-c1cc(C#N)ccn1 then? < 100 nM

For C[C@H]1CN(C(=O)C(C)(C)C)CCN1c1ncnc2c1c(-c1ccccn1)cn2-c1cc(C#N)ccn1 then? < 100 nM

For CC(C)C(=O)N1CCN(c2ncnc3c2c(-c2ccccc2F)cn3-c2cc(C#N)ccn2)CC12CC2 then? 100 to 500 nM

For C[C@H]1CN(C(=O)CC(C)(C)C)CCN1c1ncnc2c1c(C1CC1)cn2-c1cc(C#N)ccn1 then? 100 to 500 nM

For CC(C)C(=O)N1CCN(c2ncnc3c2c(-c2ccccc2F)cn3-c2cc(C#N)cnn2)[C@@H](C)C1 then? 100 to 500 nM

====

target.entity: TRPML2 (Homo sapiens, UniProt Q8IZK6)
Construct: expressed in transfected cells
Sequence (Q8IZK6 whole entry): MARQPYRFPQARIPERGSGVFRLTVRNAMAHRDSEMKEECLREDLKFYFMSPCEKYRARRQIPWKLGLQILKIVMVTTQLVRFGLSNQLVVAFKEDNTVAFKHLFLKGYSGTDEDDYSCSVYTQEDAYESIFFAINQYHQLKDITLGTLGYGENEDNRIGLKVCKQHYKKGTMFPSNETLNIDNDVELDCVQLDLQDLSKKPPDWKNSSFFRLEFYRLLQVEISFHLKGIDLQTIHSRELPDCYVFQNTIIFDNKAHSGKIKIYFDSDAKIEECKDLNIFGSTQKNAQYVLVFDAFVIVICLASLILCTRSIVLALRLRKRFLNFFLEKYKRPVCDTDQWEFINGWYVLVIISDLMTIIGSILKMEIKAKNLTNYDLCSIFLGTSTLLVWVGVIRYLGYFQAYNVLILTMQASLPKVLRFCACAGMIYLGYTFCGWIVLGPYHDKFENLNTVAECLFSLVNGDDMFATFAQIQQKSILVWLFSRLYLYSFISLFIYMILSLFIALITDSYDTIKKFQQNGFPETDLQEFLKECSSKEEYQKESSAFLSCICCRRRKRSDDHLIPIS
test: Fluorescent TRPML2 assay (as for TRPML1)
Type: cell-based
reported.conditions: Table 3, compounds 201-283
Below, each entry is listed with its recorded EC50.

{"compound": "C[C@@H]1CN(c2ncnc3c2c(C2CCC2)cn3-c2cccc(C(F)(F)F)c2)[C@@H](C)CN1C(=O)CC(C)(C)C(F)(F)F [Compound 262]", "target.entity": "TRPML2 (Homo sapiens, UniProt Q8IZK6)", "result": "0.5 to 2 µM"}

# next compound below
Lab request: please report EC50 under test system TRPML2 (Homo sapiens, UniProt Q8IZK6) for COC(C)(C)C(=O)N1C[C@H](C)N(c2ncnc3c2c(N2CCC2)cn3-c2cccc(F)c2)C[C@H]1C [Compound 277] 0.5 to 2 µM

====

Below, each entry is listed with its recorded EC50.
target.entity: UniProtKB Q9GZU1
test: Fluorescent TRPML1 assay (Fluo4-AM calcium fluorescence, HEK-293 Trex cells)
Assay type: cell-based
reported.conditions: Table 3, compounds 101-177

{"compound": "CCCN(CC)c1cn(-c2cc(C#N)ccn2)c2ncnc(N3CCN(C(=O)C(C)C)C[C@@H]3C)c12", "measurement.label": "EC50", "result": "< 100 nM"}
{"compound": "CC(C)C(=O)N1CCN(c2ncnc3c2c(N2CCCC2)cn3-c2cc(C#N)ccn2)[C@@H](C)C1", "measurement.label": "EC50", "result": "< 100 nM"}
{"compound": "C[C@H]1CN(C(=O)C2(F)CC2)CCN1c1ncnc2c1c(-c1ccccc1F)cn2-c1cc(C#N)ccn1", "measurement.label": "EC50", "result": "< 100 nM"}
{"compound": "C[C@@H]1CN(c2ncnc3c2c(C2CC2)cn3-c2cc(C#N)ccn2)CCN1C(=O)C(C)(C)F", "measurement.label": "EC50", "result": "< 100 nM"}
{"compound": "C[C@@H]1CN(c2ncnc3c2c(-c2ccccc2)cn3-c2cc(C#N)ccn2)CCN1C(=O)C1CC1", "measurement.label": "EC50", "result": "100 to 500 nM"}
{"compound": "CCN(CC)c1cn(-c2cc(C#N)ccn2)c2ncnc(N3CCN(C(=O)C(C)C)C[C@@H]3C)c12", "measurement.label": "EC50", "result": "100 to 500 nM"}

Lab request: please report EC50 under test system UniProtKB Q9GZU1 for CC(C)(C)C(=O)N1CCN(c2ncnc3c2c(-c2ccccc2F)cn3-c2cc(C#N)ccn2)CC1 < 100 nM

For C[C@H]1CN(C(=O)C(C)(C)O)CCN1c1ncnc2c1c(C1CC1)cn2-c1cc(C#N)ccn1 then? 100 to 500 nM

For CC(C)C(=O)N1CCN(c2ncnc3c2c(-c2ccccc2)cn3-c2cc(C#N)ccn2)C[C@H]1C then? < 100 nM

For CC(C)C(=O)N1CCN(c2ncnc3c2c(-c2ccccn2)cn3-c2cc(C#N)ccn2)[C@@H](C)C1 then? 500 to 2000 nM

For CC(C)C(=O)N1CCN(c2ncnc3c2c(-c2ccccn2)cn3-c2cc(C#N)ccn2)C[C@H]1C then? 500 to 2000 nM

For CC(C)CC(=O)N1C[C@H](C)N(c2ncnc3c2c(C2CC2)cn3-c2cc(C#N)ccn2)C[C@H]1C then? 100 to 500 nM

For C[C@@H]1CN(c2ncnc3c2c(-c2ccccc2)cn3-c2cc(C#N)ccn2)CCN1C(=O)C(C)(C)C then? < 100 nM

For C[C@H]1CN(C(=O)C2(C)CC2)CCN1c1ncnc2c1c(-c1ccccc1F)cn2-c1cc(C#N)ccn1 then? < 100 nM

For CC(F)C(=O)N1CCN(c2ncnc3c2c(-c2ccccc2F)cn3-c2cc(C#N)ccn2)[C@@H](C)C1 (some centres unmarked) then? < 100 nM

For C[C@@H]1CN(c2ncnc3c2c(C2CC2)cn3-c2cc(C#N)ccn2)CCN1C(=O)C1(F)CC1 then? < 100 nM

For C[C@H]1CN(C(=O)C(C)(C)O)CCN1c1ncnc2c1c(-c1ccccc1F)cn2-c1cc(C#N)ccn1 then? < 100 nM

For CC(C)CC(=O)N1CCN(c2ncnc3c2c(C2CC2)cn3-c2cc(C#N)ccn2)[C@@H](C)C1 then? < 100 nM

For CC(C)C(=O)N1CCN(c2ncnc3c2c(-c2ccccc2F)cn3-c2ncc(C#N)s2)[C@@H](C)C1 then? 100 to 500 nM

For N#Cc1ccnc(-n2cc(-c3ccccc3F)c3c(N4CCN(C(=O)C5CC5)CC4)ncnc32)c1 then? 100 to 500 nM

For CC(C)C(=O)N1CCN(c2ncnc3c2c(-c2ccccc2F)cn3-c2cc(C#N)n(C)c2)[C@@H](C)C1 then? 100 to 500 nM

For Cc1nccnc1-c1cn(-c2cc(C#N)ccn2)c2ncnc(N3C[C@@H](C)N(C(=O)CC(C)C)C[C@@H]3C)c12 then? 100 to 500 nM

For Cc1cc(C#N)cc(-n2cc(-c3ccccc3F)c3c(N4CCN(C(=O)C(C)C)C[C@@H]4C)ncnc32)n1 then? 100 to 500 nM

For C[C@@H]1CN(c2ncnc3c2c(-c2ccccc2F)cn3-c2cc(F)ccn2)[C@@H](C)CN1C(=O)C(C)(C)O then? < 100 nM
